Test system: Rho-A
Experiment: Ras GTP Binding Domain Inhibition Assay, Rho-A
Settings: at 20 μM; without SOS
Quantity Name: Rho-A: % inh.

Query string: Determine from records and report Rho-A: % inh. for `COCCOc1nc(-c2nccn2C)nc2sc(-c3ccn(C(C)C)n3)c(C)c12`
Result string: 0 (0 = 0% inhibition)

====

Tested on: KRas G12D mutant
Assay: Ras GTP Binding Domain Inhibition Assay, KRas G12D mutant
Settings: at 20 μM; with SOS; Table 8
Quantity Name: KRas G12D mutant + SOS: % inh.

Query string: Identify KRas G12D mutant + SOS: % inh. associated with the molecule `COc1cc(Cn2c(-c3nccn3C)nc3sc(-c4ccn(C(C)C)n4)c(C)c3c2=O)ncn1`
Result string: 0 (0 = 0% inhibition)

====

System: KRas G12D mutant
Assay: Ras GTP Binding Domain Inhibition Assay, KRas G12D mutant
Conditions: at 20 μM; without SOS; Table 7
Method: A Ras Superfamily Activity Assay (as disclosed in International Application No. PCT/US2018/038613, filed Jun. 20, 2018, which is incorporated by reference in its entirety) was used as a specific assay to evaluate compounds against the following for the following Ras Superfamily proteins: KRas wild type, KRas Q61H mutant, KRas G12C mutant, KRas G12D mutant, Rac-1, and Rho-A. Buffer-I: • 25 mM Tris-HCl, pH 7.4 • 27 mM KCl • 137 mM NaCl • 1 mM MgCl2 • 1 mM DTT […]
# KRas G12D mutant: % inh. listing for each entry below

Examples with answers:
Structure String	Quantity Name	Recorded Value
COCCCOc1nc(-c2nccn2C)nc2sc(-c3ccn(C(C)C)n3)c(-c3ccccc3)c12	KRas G12D mutant: % inh.	0 (0 = 0% inhibition)
COCCOc1nc(-c2nccn2C)nc2sc(-c3ccn(C(C)C)n3)c(C)c12	KRas G12D mutant: % inh.	0 (0 = 0% inhibition)

Query string: Provide KRas G12D mutant: % inh. value for the following compound: `COCCCn1c(-c2nccn2C)nc2sc(-c3ccn(C(C)C)n3)c(-c3ccccc3)c2c1=O`
Result string: 0 (0 = 0% inhibition)

====

Test system: KRas G12C mutant
Experiment: Ras GTP Binding Domain Inhibition Assay, KRas G12C mutant
Conditions: at 20 μM; without SOS
Quantity Name: KRas G12C mutant: % inh.

Compound	Recorded Value
COCCCCn1c(-c2nccn2C)nc2sc(-c3ccn(C(C)C)n3)c(C)c2c1=O [Compound 33]	0 (0 = 0% inhibition)
COCCCOc1nc(-c2nccn2C)nc2sc(-c3ccn(C(C)C)n3)c(-c3ccccc3)c12 [Compound 37]	0 (0 = 0% inhibition)

// switching to the query compound
Query string: Note down KRas G12C mutant: % inh. recorded for COCCCn1c(-c2nccn2C)nc2sc(-c3ccn(C(C)C)n3)c(C)c2c1=O [Compound 31]
Result string: 0 (0 = 0% inhibition)

====

Tested on: KRas G12C mutant
Experiment: Ras GTP Binding Domain Inhibition Assay, KRas G12C mutant
Conditions: at 20 μM; with SOS
Quantity Name: KRas G12C mutant + SOS: % inh.

Structure String	Subject Of Test	Recorded Value
COc1cc(Cn2c(-c3nccn3C)nc3sc(-c4ccn(C(C)C)n4)c(C)c3c2=O)ncn1	KRas G12C mutant	A (A = 1-25% inhibition)
COCCOc1nc(-c2nccn2C)nc2sc(-c3ccn(C(C)C)n3)c(C)c12	KRas G12C mutant	0 (0 = 0% inhibition)
COCCCCn1c(-c2nccn2C)nc2sc(-c3ccn(C(C)C)n3)c(C)c2c1=O	KRas G12C mutant	A (A = 1-25% inhibition)
COCCCCOc1nc(-c2nccn2C)nc2sc(-c3ccn(C(C)C)n3)c(C)c12	KRas G12C mutant	A (A = 1-25% inhibition)

Now let's try a different one.
Query string: Output measured KRas G12C mutant + SOS: % inh. for this item: `COCCCn1c(-c2nccn2C)nc2sc(-c3ccn(C(C)C)n3)c(C)c2c1=O`
Result string: 0 (0 = 0% inhibition)
